- Study system: CFTR ΔF508 mutant (Homo sapiens, UniProt P13569, DEL508-508)
- Construct: expressed in transfected cells; host or cells: CFBE41o- (adenoviral transduction)
- Sequence (P13569 with tags, fused parts or gaps DEL508-508): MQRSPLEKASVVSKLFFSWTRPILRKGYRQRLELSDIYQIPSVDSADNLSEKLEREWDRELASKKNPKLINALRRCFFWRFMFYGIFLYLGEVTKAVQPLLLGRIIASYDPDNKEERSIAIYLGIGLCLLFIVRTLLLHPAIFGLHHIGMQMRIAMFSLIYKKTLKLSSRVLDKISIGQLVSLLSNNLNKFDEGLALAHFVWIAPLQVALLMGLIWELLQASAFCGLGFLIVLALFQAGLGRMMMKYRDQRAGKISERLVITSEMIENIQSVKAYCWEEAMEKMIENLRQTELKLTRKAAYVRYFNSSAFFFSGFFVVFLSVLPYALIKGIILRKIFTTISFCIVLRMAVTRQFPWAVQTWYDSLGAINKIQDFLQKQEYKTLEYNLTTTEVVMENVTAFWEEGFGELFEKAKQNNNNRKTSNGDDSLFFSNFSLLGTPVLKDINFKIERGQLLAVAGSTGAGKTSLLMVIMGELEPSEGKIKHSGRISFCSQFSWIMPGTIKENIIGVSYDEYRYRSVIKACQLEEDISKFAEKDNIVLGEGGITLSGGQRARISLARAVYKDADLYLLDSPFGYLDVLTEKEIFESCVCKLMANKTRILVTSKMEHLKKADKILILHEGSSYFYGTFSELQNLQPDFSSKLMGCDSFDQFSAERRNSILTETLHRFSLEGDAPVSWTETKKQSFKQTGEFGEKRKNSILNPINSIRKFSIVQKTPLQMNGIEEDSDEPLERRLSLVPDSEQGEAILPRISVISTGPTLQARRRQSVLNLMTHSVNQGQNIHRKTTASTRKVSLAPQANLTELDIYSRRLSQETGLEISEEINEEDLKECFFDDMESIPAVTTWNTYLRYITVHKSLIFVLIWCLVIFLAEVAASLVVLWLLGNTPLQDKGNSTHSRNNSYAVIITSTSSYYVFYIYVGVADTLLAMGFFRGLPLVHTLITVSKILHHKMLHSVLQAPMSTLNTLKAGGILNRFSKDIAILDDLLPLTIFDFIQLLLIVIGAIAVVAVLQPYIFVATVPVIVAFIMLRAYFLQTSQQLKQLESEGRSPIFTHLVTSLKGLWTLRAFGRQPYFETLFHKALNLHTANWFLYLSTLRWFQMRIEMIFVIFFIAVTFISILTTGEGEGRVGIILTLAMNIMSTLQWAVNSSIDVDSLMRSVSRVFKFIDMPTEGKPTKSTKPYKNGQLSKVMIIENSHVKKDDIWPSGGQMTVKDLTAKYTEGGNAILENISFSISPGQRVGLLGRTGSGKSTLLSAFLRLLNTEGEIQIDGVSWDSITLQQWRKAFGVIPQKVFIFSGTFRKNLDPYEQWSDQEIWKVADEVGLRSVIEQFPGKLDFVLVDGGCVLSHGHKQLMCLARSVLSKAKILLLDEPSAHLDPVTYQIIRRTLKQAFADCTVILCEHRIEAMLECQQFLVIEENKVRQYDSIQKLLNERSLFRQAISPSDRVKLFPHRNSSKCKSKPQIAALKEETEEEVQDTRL
- Assay summary: YFP-halide influx assay for the CFTR-ΔF508 mutation, gluconate buffer
- Type: cell-based
- Assay context: CFBE41o- cells, forskolin 10.67 μM
pEC50: −log10 of the molar value.
Decision: pEC50 >= 7 yields Criterion met, all other cases yield Criterion not met.

Compound structure	Study system	Class label
Cn1nc(C(C)(C)C)cc1C(=O)Nc1sc(S(=O)(=O)N2CCOCC2)cc1C(N)=O	CFTR ΔF508 mutant (Homo sapiens, UniProt P13569, DEL508-508)	Criterion not met
Cc1ccc(C(=O)Nc2sc(S(=O)(=O)C3CCOCC3)cc2C(N)=O)s1	CFTR ΔF508 mutant (Homo sapiens, UniProt P13569, DEL508-508)	Criterion not met
COc1cc(C)ccc1C(=O)Nc1sc(S(=O)(=O)N2CCOCC2)cc1C(N)=O	CFTR ΔF508 mutant (Homo sapiens, UniProt P13569, DEL508-508)	Criterion not met
CC(C)(O)C(=O)Nc1sc(S(=O)(=O)N2CCOCC2)cc1C(N)=O	CFTR ΔF508 mutant (Homo sapiens, UniProt P13569, DEL508-508)	Criterion not met
COc1ccc(CN(C)S(=O)(=O)c2cc(C(N)=O)c(NC(=O)c3cc[nH]n3)s2)cc1F	CFTR ΔF508 mutant (Homo sapiens, UniProt P13569, DEL508-508)	Criterion met
CC(C)N(C)S(=O)(=O)c1cc(C(N)=O)c(NC(=O)c2ccccc2F)s1	CFTR ΔF508 mutant (Homo sapiens, UniProt P13569, DEL508-508)	Criterion met
NC(=O)c1cc(S(=O)(=O)c2ccc(F)c(F)c2)sc1NC(=O)c1cc[nH]n1	CFTR ΔF508 mutant (Homo sapiens, UniProt P13569, DEL508-508)	Criterion met
NC(=O)c1cc(S(=O)(=O)N2CC=C(C(F)(F)F)CC2)sc1NC(=O)c1ccccc1F	CFTR ΔF508 mutant (Homo sapiens, UniProt P13569, DEL508-508)	Criterion met

[Q] Entry NC(=O)c1cc(S(=O)(=O)N2CCOCC2)sc1NC(=O)c1cc2ccccc2s1 : is its pEC50 no less than 7?
[A] Criterion not met

[Q] Item: NC(=O)c1cc(S(=O)(=O)c2ccc(F)cc2)sc1NC(=O)c1ccccc1O
[A] Criterion met

[Q] Thanks! And CN(Cc1ccccc1)S(=O)(=O)c1cc(C(N)=O)c(NC(=O)c2ccccc2F)s1 ?
[A] Criterion not met

[Q] Please do the same for NC(=O)c1cc(S(=O)(=O)N2CCOCC2)sc1NC(=O)C1(O)CCOCC1 as well.
[A] Criterion not met

[Q] How about NC(=O)c1cc(S(=O)(=O)N2CCOCC2)sc1NC(=O)c1cccnn1 ?
[A] Criterion not met

Hey, just so you know, these numbers are from patent US9382254B2.
